# Tested on: H1 or H9 human embryonic stem cells
# ASSAY: Activin A bioassay: differentiation of human embryonic stem cells to definitive endoderm, cell number and SOX17 intensity by high content analysis (96-well, four days)
# Format: cell-based
# CONDITION_INFO: supernatant concentration 1x, assay dilution 1:20; control = R&D Sys Activin A 100 ng/ml on same plate
PROPERTY_LABEL: Sox 17 Intensity % of control (%)
All answers are understood in %, so give the number only.

The value of Sox 17 Intensity % of control measured for the molecule ACTN11: activin A variant peptide, SEQ ID 12 (protein) GLECDGKVNLCCKKQLFVSFKDIGWNDWIIAPSGYHANHCSGLCPSHIAGTSGSSLSFHSTVINHYRMRGHSPFAQMGACCIPTKLRPMSMLYYDDGQNIIKKDIQNMIVEECGCS turned out to be 13.4
